B1: tRNA (parent)
chain: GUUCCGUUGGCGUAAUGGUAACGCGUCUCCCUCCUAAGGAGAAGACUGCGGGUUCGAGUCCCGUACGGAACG

# Variants of: B1
# run.description: yeast fitness relative to wild type (ratio to wild type); higher = fitter; tRNA-Arg(CCU), competitive growth, 37 C, YPD
Variants at the floor of the assay were thinned out.
recorded.metric: yeast fitness
API note: the answer field is a bare number with no unit suffix.

Example variants with recorded yeast fitness:
| residue.codes | yeast fitness |
| --- | --- |
| GUUCCGUUGGCGUAAUGGAAACGCGUCUCCCUCCUAAGGAGGAGACUGCGGGUUCGAGUCCCGUACUGAACG [U19A A42G G67U] | 0.585 |
| GUUCAGUUGGCGUAAUCGUAACGCGUCUCCCUCCUAAGGAGAUGACUGCGGGUUCGAGUCCCGUACGGAACG [C5A G17C A43U] | 0.543 |
| GUUCCGUUGGCGUAAUGGUAACGAGUCUCCCUCCUACAGAGAAGACUGCGGGUUCGAGUCCCGUACGGAACG [C24A A37C G38A] | 0.61 |
| GUUCCGUUGGCGUAAUGGUAACGCGUCUUCCUCCUAAGGAGAUGACUGCGGGUUCGAGUCCCGUACGGCACG [C29U A43U A69C] | 0.735 |

Exercise: Recall and state the measured yeast fitness for GUACCGUUGGCGUAGUGGUAACGCGUCCCCCUCCUAAGGAGAAGACUGCGGGUUCGAGUACCGUACGGAACG [U3A A15G U28C C60A] .
Solution: 0.522

Exercise: Recall and state the measured yeast fitness for GUUCCGUUGGCGUAAUGGUAACGCGUCUCCCUCCUAAGAAGAAGACUGCGGGUUCGAGUCUAGUACGGAACG [G39A C61U C62A] .
Solution: 0.558

Exercise: Recall and state the measured yeast fitness for GUUCCGUUGGCGUAAUUGUAACGCGUCUCCCUCCUAAGGUGUAGACUGGGAGUUCGAGUCCCGUAAGCAACG [G17U A40U A42U C49G G51A C66A G68C] .
Solution: 0.536

Exercise: Recall and state the measured yeast fitness for GUUCCGUUGGCGUAAUGGUAACGCGUCUCCCUCUUAAGGAGAAGACUGCGGGUUCGAGUCCCGUACGCAACG [C34U G68C] .
Solution: 0.773

Exercise: Recall and state the measured yeast fitness for GUUGCGUUAGCGUAAUGGUAACGCGUCUCCCUCCUAAGGAGAAGACUGCGGGUUCGAGUCCCGUACGGACCG [C4G G9A A70C] .
Solution: 1.09

Exercise: Recall and state the measured yeast fitness for GUUCCGUUGGCGUAAUGAUAACGCGUCUCCCUCCUAAGGAGAAGACUGAGGGUUCGAGUCCCGUUCGGAACG [G18A C49A A65U] .
Solution: 0.558

Exercise: Recall and state the measured yeast fitness for GUUCCGUUGGCGUAAUGGUAACGUGUCUCCCUCCUCAGGAGAAGUCUGCGGGUUCGAGUCCCGUACGGAACG [C24U A36C A45U] .
Solution: 0.513

Exercise: Recall and state the measured yeast fitness for GUUCCGUUGGCGUAAUGGUAUCGCGUCUCCCUCAUAAGGAGAAGACUGCGGGUUCGAGUCCCGUACGGAACG [A21U C34A] .
Solution: 0.573

Exercise: Recall and state the measured yeast fitness for GUUCCGUUGGCGUAAUGGUAACGCGUCUCCCUCCGAAGGAGAAGACUGCGGGUUCGAGUCCCGUUCGGAACG [U35G A65U] .
Solution: 0.606

Exercise: Recall and state the measured yeast fitness for GUACCGUUGGCGUAAUGGUAACGCGUCUCCCUCCUAAGGAGAAGACUGCGGGUUCGAGUCCCGUACCGAACG [U3A G67C] .
Solution: 0.827

Exercise: Recall and state the measured yeast fitness for GUUCCGUUGGCGUAAGGGUUACGCGUCUCCCUCCUAAGGAGAAGACUGCGGGUUCGAGUCCCGUACGGAACG [U16G A20U] .
Solution: 0.642

Exercise: Recall and state the measured yeast fitness for GUUCCGUUGGCGUAAUGGUACCGCGUCUCCCUCAUAGGGAGAAGACUGCGGGUUCGAGUCCCGUACGGAACG [A21C C34A A37G] .
Solution: 0.513

Exercise: Recall and state the measured yeast fitness for GUUCCGUUGGCGUAAUGGUAACGCGUCUCCCUCCUAAAGCGAAGACUGCGGGCUCGAGUCCCGUACGGAACG [G38A A40C U53C] .
Solution: 0.538

Exercise: Recall and state the measured yeast fitness for GUUCCGUUGACGUAAUGGUAACGCGCCUCCCUCCUAAGGAGAAGACUGCGGGUUCGAGUCCCGUACGGAACG [G10A U26C] .
Solution: 0.736

Exercise: Recall and state the measured yeast fitness for GUACCGUUGGCGUAAUGGUAACGCGUCUCCCUCCUAAGGAGAAGACUGCGGGUUCGAGUCCCGUCCGGACCG [U3A A65C A70C] .
Solution: 0.679

Exercise: Recall and state the measured yeast fitness for GUUCCGUUGGCGAAAUGGUAACGCGUCUCCCUCCUAAGGAGAAGACUGCUGGUUCGAGUCCCGUACGCAACG [U13A G50U G68C] .
Solution: 0.515

Exercise: Recall and state the measured yeast fitness for GUUCCAUUGGCGUAAUGGUAACGCGUCUCCCUCCUAAGGAGAAGACUGUGGGUUCGAGUCCCGUACGGAACG [G6A C49U] .
Solution: 0.959

Exercise: Recall and state the measured yeast fitness for GUUCGGUUGGCGUAAUGGUAACGCGUCUCCCUCCUAAGGAGAAGACUGCGGGUUCGAGUCCUGUACGGAACG [C5G C62U] .
Solution: 0.79

Exercise: Recall and state the measured yeast fitness for GUCCCGUUGGCGUAAUGGUAACGCGUCUCCCUCCUAUGGAGAAGACUGCGGGUUCGAGUCCCGUACGGAACG [U3C A37U] .
Solution: 0.806

Exercise: Recall and state the measured yeast fitness for GUUCCGUUGGCGUAAUGGUAACGCGUAUCCCUCCUAAGGAGAAGACUGCGGGUUCGAGCCCCGUACGGAACG [C27A U59C] .
Solution: 0.883

Exercise: Recall and state the measured yeast fitness for GUUCCGUUGGCGUUAUGGUAACGCGUCUCCCUCCUAAGGAGAUGACUGCGGGUUCGAGUCCCGUACGGAACG [A14U A43U] .
Solution: 0.721

Exercise: Recall and state the measured yeast fitness for GCUCCGUUGGCGCAAUGGUAACGCGUCUCCCUCCUAAAGAGAAGACUGCGGGUUCGAGUCCCGUACGGAACG [U2C U13C G38A] .
Solution: 0.596

Exercise: Recall and state the measured yeast fitness for GUUCCGUUGGCGUAAUGGUAACGCGUCUCCCUAGUAAGGAGAAGACUGCAGGUUCGAGUCCCGUACGGAACG [C33A C34G G50A] .
Solution: 0.517

Exercise: Recall and state the measured yeast fitness for GUUCGGUUGGCGUAAUGGUCACGCGUCCACCUCCUUAGGUGAAGACUGGGGGUUCGAGUCCCCUACGGAUCG [C5G A20C U28C C29A A36U A40U C49G G63C A70U] .
Solution: 0.579

Value source: the RNAGym collection of RNA variant scans (doi:10.1126/science.aae0568)
